FYI, the data here is from a melting point compilation (Tetko et al.).

Rule: melting point below 100 °C gives MET. Equal to or above 100 °C gives NOT MET.

smiles.structure: Nc1cc(-c2ccccc2)no1
category.label: NOT MET
//
smiles.structure: CC(C)(O)CCl
category.label: MET
//
smiles.structure: COc1cc2c(cc1OC)CC2
category.label: MET
//
smiles.structure: O=c1cc(-c2ccc(O)cc2)oc2cc(O)cc(O)c12
category.label: NOT MET
//
smiles.structure: C#CCOCc1cc(COCC#C)c(COCC#C)cc1COCC#C
category.label: MET
//
smiles.structure: c1c2c(cc3c1CCCN3)NCCC2
category.label: NOT MET

# strict comparison: is reported melting point < 100 °C? input = NS(=O)(=O)c1cc2c(cc1Cl)NCNS2(=O)=O
NOT MET

# strict comparison: is reported melting point < 100 °C? input = Cc1ccc([C@H]2O[C@@H](c3ccc(C)cc3)[C@H](C)C(=O)[C@@H]2C)cc1
NOT MET
